Record form. Attribute: Proportion of chimeric antibody positive cells to B cells (%). Fill in for each entry.
Biological target: T1, CD22 on cynomolgus monkey peripheral blood B cells (cynomolgus monkey (Macaca fascicularis))
T1 construct: whole, on cells; also called cynomolgus monkey B cells
Assay: FACS, cynomolgus PBMC, CD20+ B cells, antibody 10 nM
Give bare numbers, in %.

Solved entries:
F1.200.11 (antibody, human IgG1, kappa, V domains shown, human-murine chimeric IgG1 kappa) VH: QNQLVQSGPELKKPGETVKISCKASGYTFTTAGMQWVQKMPGKGFKWIGWINTLSGEPKYAEDFKGRFAFSLETSATTAYLQISNLKNEDTATYFCARAYYSNLYWYFDVWGTGTTVTVSS VL: DIVMTQSQKFMSTTVGDRVTITCKASQNVVTAVAWYQQKPGQSPKVLIYSASNRYSGVPDRFTGSGSGTDFTLTISNMHSEDLANYFCHQYSSYPFTFGSGTKLEIKR ... 37
F1.60.9 (antibody, human IgG1, kappa, V domains shown, human-murine chimeric IgG1 kappa) VH: QVQLKESGPGLVAPSQSLSITCTVSGLSLNNYGVSWVRQPPGKGLEWLGVIWGDGSTNYHSALISRLSISKDNSKSQVFLKLNSLHTDDTATYYCAINWGDYWGQGTTLIVSS VL: DIKMTQSPSSMNASLGERVTITCKASQDINSYLSWFQQKPGKSPKILIYRANRLIDGVPSRFSGSGSGQDYSLTISSLEYEDMGIYYCLQYGVFPLTFGAGTKLELKR ... 16

Name the recorded Proportion of chimeric antibody positive cells to B cells (%) for F1.161.7 (antibody, human IgG1, kappa, V domains shown, human-murine chimeric IgG1 kappa) VH: QVQLQQPGAELVKPGASVKMSCKASGYTFTSYWISWVKQRPGQGLEWIGDIYPGTGSSNYNEKFKSKATLTVDTSSSTAYMQLSSLTSEDSAVYYCARLKFEGIGYWGQGTTLTVSS VL: QIVLTQSPAIMSASLGEEITLTCSASSSVSYMHWFQQKSGTSPKLLIYSISNLASGVPSRFSGSGSGTFYSLTISSVEAEDAADYYCHQWSSYPWTFGGGTKLEIKR .
21
